Where these numbers come from: the NIST ThermoML archive (doi:10.1016/j.jct.2017.07.018)

# PROTOCOL_CONDITIONS: 470 K; Liquid; Gas chromatography
Overview of reported vapor or sublimation pressure across a group of compounds:
PARAMETER_MEASURED: vapor or sublimation pressure (kPa)

COMPOUND	PARAMETER_MEASURED	UNIT_TAG	DATA_VALUE
C=CC(C)(O)CC/C=C(/C)CCC=C(C)C (centres undefined) [(Z)-3,7,11-trimethyldodeca-1,6,10-trien-3-ol]	vapor or sublimation pressure	kPa	10
OC12CC3CC(CC(C3)C1)C2 [1-adamantanol]	vapor or sublimation pressure	kPa	29
C[C@@H]1CC[C@H]2C(C)(C)[C@H]3C[C@@]12CC[C@@]3(C)O [(+)-cedrol]	vapor or sublimation pressure	kPa	6.3
C=CC(C)(O)CC/C=C(\C)CCC=C(C)C (centres undefined) [(E)-3,7,11-trimethyldodeca-1,6,10-trien-3-ol]	vapor or sublimation pressure	kPa	9.1

* * *

Overview of reported vapor or sublimation pressure across a group of compounds:
# PROTOCOL_CONDITIONS: 480 K; Liquid; Gas chromatography
± gives the expanded uncertainty stated by the source.

COMPOUND	vapor or sublimation pressure
C[C@@H]1CC[C@H]2C(C)(C)[C@H]3C[C@@]12CC[C@@]3(C)O [(+)-cedrol]	8.7 ± 0.68 kPa
C=CC(C)(O)CC/C=C(\C)CCC=C(C)C (centres undefined) [(E)-3,7,11-trimethyldodeca-1,6,10-trien-3-ol]	13 ± 1 kPa
OC12CC3CC(CC(C3)C1)C2	38 ± 3.1 kPa
C=CC(C)(O)CC/C=C(/C)CCC=C(C)C (centres undefined) [(Z)-3,7,11-trimethyldodeca-1,6,10-trien-3-ol]	15 ± 1.2 kPa
